Molecular target: T1, human FCGRT (human, UniProt P55899 24-297, biotinylated (Avi tag) in the blocking assays)
T1 construct: Alpha chain alone, expressed in Expi293 cells with His and Avi tags; also called FCGRT of human FcRn protein; biotinylated human FCGRT; not shown: His tag and Avi tag
T1 sequence (P55899 24-297 limits assumed): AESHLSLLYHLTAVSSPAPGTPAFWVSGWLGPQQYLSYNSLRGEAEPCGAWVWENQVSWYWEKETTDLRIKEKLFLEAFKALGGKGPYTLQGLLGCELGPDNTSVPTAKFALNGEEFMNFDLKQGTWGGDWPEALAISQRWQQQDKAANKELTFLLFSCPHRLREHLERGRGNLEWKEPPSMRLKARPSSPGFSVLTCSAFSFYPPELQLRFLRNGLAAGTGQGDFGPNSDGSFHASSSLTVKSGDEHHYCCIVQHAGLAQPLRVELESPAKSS
Assay: competition ELISA: human IgG coated, biotinylated human FCGRT plus antibody, SA-HRP
Entries and their measured IC50 follow.
PARAMETER MEASURED: IC50 (nM)

BINDER	READOUT NUMBER
ZLP57 (antibody, V domains shown, Full-length chimeric antibody with human IgG1 or IgG4 heavy constant and human kappa or lambda light constant domain) VH: QVQLKESGPDLVKPSQSLSLTCTVTGYSITSGYSWHWIRQFPGNKLEWMTYIHSSGSTNYNPSLKSRISITRDTSKNQFFLQLKSVTTEDTATYYCAREVYGNYYWYFDVWGAGTTVTVSS VL: DIVMTQSPAIMSASLGEEITLTCSASSSVSYMHWYQQKSGTSPKLLIYSTSNLASGVPARFSGSGSGTSYSLTISRMEAEDAATYYCQQRSSYPYTFGGGTKLEIK	8.88
ZLP44 (antibody, V domains shown, Full-length chimeric antibody; human kappa or lambda light constant domain) VH: EVQLQQSGPELVKPGASVKVSCKASGYIFTSYNMYWMKQSHGKSLEWIGYIDPYNGGTRYNQKFKGKATLTVDKSSSTAYMHLNSLTSEDSAVYYCAVDGYNGAMDYWGQGTSVTVSS VL: QIVLTQSPASLAVSLGQRATISCRASESVDSYGNSFMHWYQQKPGQPPKLLIYRASNLESGIPARFSGSGSRTDFTLTINPVEADDVATYYCQQSNEDPYTFGGGTKLEIK	12.3
ZLP64 (antibody, V domains shown, Full-length chimeric antibody; human kappa or lambda light constant domain) VH: QIQLLQSGPELVKPGASVKVSCKASGYIFTSYNMYWMKQSHGKSLEWIGYIDPYNGGTNYNQKFKGKATLTVDKSSSTAYMHLNSLTSEDSAVYYCAVDGYNGAMDYWGQGTSVTVSS VL: DIVLTQSPASLTVSLGQRATISCRASESVDRYGNSFMHWYQQKPGQPPKLLIYRASNLESGVPARFSGSGSRTDFTLTINPVEADDVASYYCQQSNEDPLTFGAGTKLELK	12.5
ZLP42 (antibody, V domains shown, Full-length chimeric antibody) VH: QVQLQQPGAELVKPGASVKLSCTASGFNIKDTYMYWVKQRPEQGLEWIGRIDPANGITKFDPKFQDKATVTADTFSNIAYLHLSSLTSEDTAVYYCTTTAVMATEAMDRWGQGTSVTVSS VL: QIVLTQSPASLAVSLGQRATISCRASESVDSYGNSFMHWYQQKPGQPPKLLIYRASNLESGIPARFSGSGSRTDFTLTINPVEADDVATYYCQQSNEDPYTFGGGTKLEIK	10.9
